The origin of these recorded values is patent US6683184B2.

System: SKMEL-2 (human melanoma)
protocol summary: In vitro antitumor effect against human tumor cell lines, SRB assay, SKMEL-2
Assay type: cell-based
experimental conditions: SK-MEL-2 cells, 48 hours
// classify: if (ED50 SK-MEL-2 < 0.3 ng/mL) yes else no

Determine if `COC(=O)c1cc(N=C(NO)N2CCN(c3cc(OC)cc(OC)c3)CC2)c(OC)nc1C` shows ED50 SK-MEL-2 strictly lower than 0.3 ng/mL.
no

Moving on to the next compound: `COc1cc(OC)cc(N2CCN(C(=Nc3cc(CO)c(C)nc3OC)NO)CC2)c1`
yes

Moving on to the next compound: N.N.[Cl][Pt][Cl] [Cisplatin, reference compound]
no

Moving on to the next compound: `COc1cc(OC)cc(N2CCN(C(=Nc3cc4ccccc4nc3OC)NO)CC2)c1`
no

---

protocol summary: Acute toxicity test (LD50), Litchfield-Wilcoxon method
Type: in vivo
experimental conditions: mouse, in vivo, iv; ICR mice, male, i.v., observed 14 days; read-out: LD50 i.v.
Overview of reported LD50 at 14 days across a group of molecules:
Just the number please, in mg/kg, no unit attached.

COc1cc(OC)cc(N2CCN(C(=O)Nc3nc4ccccc4nc3OC)CC2)c1 [Example 38] ... 97

Could you tell me which LD50 at 14 days is on file for COc1nc(C)c(C)nc1NC(=O)N1CCN(c2cc(C)cc(C)c2)CC1 [Example 7] ?
75

---

Test system: HCT-15 (human colon)
protocol summary: In vitro antitumor effect against human tumor cell lines, SRB assay, HCT-15
Type: cell-based
experimental conditions: Homo sapiens, HCT 15 cells, 48 hours, read-out: ED50 HCT 15
readout type: IC50 (µg/mL)
Just the number please, in µg/mL, no unit attached.

Check out these entries, answers already filled in.
CCc1ccccc1N1CCN(C(=O)Nc2nc(C)c(C)nc2OC)CC1 ... 0.038
COc1nc2ccccc2nc1N(C)C(=O)N1CCN(c2cc(C)cc(C)c2)CC1 ... 0.33
COc1nc2ccccc2nc1NC(=O)N1CCN(c2ccccc2C(C)C)CC1 ... 0.39
COc1nc(C)c(C)nc1NC(=O)N1CCN(c2ccccc2SC)CC1 ... 0.067
COc1cc2ccccc2cc1NC(=O)N1CCN(c2cc(Cl)cc(Cl)c2)CC1 ... 0.05

Could you tell me which IC50 is on file for `COc1cc(OC)cc(N2CCN(C(=S)Nc3nc4ccccc4nc3OC)CC2)c1` ?
0.032

Moving on to the next compound: `COc1cc(OC)cc(N2CCN(C(=O)N(C)c3nc(C)c(C)nc3OC)CC2)c1`
0.08

Moving on to the next compound: `COc1ccccc1N1CCN(C(=O)Nc2nc3ccccc3nc2OC)CC1`
0.009

Moving on to the next compound: `COc1nc2ccccc2nc1NC(=S)N1CCN(c2cc(F)cc(F)c2)CC1`
0.31

Moving on to the next compound: `COc1cc(OC)cc(N2CCN(C(=O)Nc3cc4ccccc4cc3OC)CC2)c1`
0.008

Moving on to the next compound: `CCc1ccccc1N1CCN(C(=O)Nc2nc3ccccc3nc2OC)CC1`
0.06

Moving on to the next compound: `COc1nc(C)c(C)nc1NC(=O)N1CCN(c2cc(F)cc(F)c2)CC1`
0.001

Moving on to the next compound: `COc1cc(OC)cc(N2CCN(C(=O)Nc3nc(C)c(C)nc3OC)CC2)c1`
0.002

Moving on to the next compound: `COc1cc(OC)cc(N2CCN(C(=O)N(C)c3nc4ccccc4nc3OC)CC2)c1`
0.05
